- Assay: NCI Yeast Anticancer Drug Screen. Data for the wt1 strain (AID 149);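 also: 0% = growth of vehicle-treated wt1 cultures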
- Recorded conditions: S. cerevisiae wt1 strain (SPY 50644) growth inhibition; at 33.0 µM; stronger effect = higher value
Compounds without any hit were thinned out: in the full panel of roughly 79,000, 15% have a hit.
Reported growth inhibition by item:
Value type: growth inhibition (%)

>  <Compound>
CC1=CC(=C(c2ccc(N)c(C)c2)c2ccc(N)c(C)c2)C=CC1=N

>  <Value type>
growth inhibition

>  <Quantity unit>
%

>  <Reported>
6

$$$$
>  <Compound>
CC(=O)CC(c1ccccc1)c1c(O)c2ccccc2oc1=O (stereo not given)

>  <Value type>
growth inhibition

>  <Quantity unit>
%

>  <Reported>
10

$$$$
>  <Compound>
COc1cc(NCCCCNCC(C)(C)C)c2ncccc2c1

>  <Value type>
growth inhibition

>  <Quantity unit>
%

>  <Reported>
0

$$$$
>  <Compound>
CC(C)(Br)C(=O)/C=C/c1ccccc1

>  <Value type>
growth inhibition

>  <Quantity unit>
%

>  <Reported>
10

$$$$
>  <Compound>
c1ccc2nc3c(nc2c1)sc1ccccc13

>  <Value type>
growth inhibition

>  <Quantity unit>
%

>  <Reported>
27

$$$$
>  <Compound>
CCOC(=O)/C(=C\c1ccc(F)cc1)C(C)=O

>  <Value type>
growth inhibition

>  <Quantity unit>
%

>  <Reported>
93

$$$$
>  <Compound>
COc1c2c(c3c(c1CCC(=O)O)OC(C)(C)C=C3)OC(C)(C)C=C2

>  <Value type>
growth inhibition

>  <Quantity unit>
%

>  <Reported>
49

$$$$
>  <Compound>
CC1=COC2=C(C)C(=O)C(=O)c3c(C)ccc1c32

>  <Value type>
growth inhibition

>  <Quantity unit>
%

>  <Reported>
77

$$$$
>  <Compound>
CN1CCN(C(=O)c2cccc3cccc(C(=O)O)c23)CC1

>  <Value type>
growth inhibition

>  <Quantity unit>
%

>  <Reported>
12

$$$$
>  <Compound>
Nc1ccc2cc(Br)ccc2c1Br

>  <Value type>
growth inhibition

>  <Quantity unit>
%

>  <Reported>
-5

$$$$
>  <Compound>
CC(CC/C(=N/O)c1ccccc1)(CC/C(=N\O)c1ccccc1)[N+](=O)[O-] (stereo not given)

>  <Value type>
growth inhibition

>  <Quantity unit>
%

>  <Reported>
0

$$$$
>  <Compound>
[N-]=[N+]=NC1(c2ccccc2)C(=O)Nc2ccccc2C1=O (stereo not given)

>  <Value type>
growth inhibition

>  <Quantity unit>
%

>  <Reported>
4

$$$$
>  <Compound>
CC(=O)CCC1=C(C)C(=O)C(=O)C(C)=C1O

>  <Value type>
growth inhibition

>  <Quantity unit>
%

>  <Reported>
7

$$$$
>  <Compound>
Brc1ccc(B2Nc3ccccc3N2)cc1

>  <Value type>
growth inhibition

>  <Quantity unit>
%

>  <Reported>
31

$$$$
>  <Compound>
Cc1cc2nc3ccccc3n2c2ccccc12

>  <Value type>
growth inhibition

>  <Quantity unit>
%

>  <Reported>
-31

$$$$
>  <Compound>
NCCCSc1ccccc1

>  <Value type>
growth inhibition

>  <Quantity unit>
%

>  <Reported>
-3

$$$$
>  <Compound>
C/C(=N\Sc1ccccc1)c1ccccc1O

>  <Value type>
growth inhibition

>  <Quantity unit>
%

>  <Reported>
4

$$$$
>  <Compound>
O=c1c2ccccc2nc(-c2cccc([N+](=O)[O-])c2)n1O

>  <Value type>
growth inhibition

>  <Quantity unit>
%

>  <Reported>
84

$$$$
>  <Compound>
Clc1nc(Cl)nc(Nc2cccc3ccccc23)n1

>  <Value type>
growth inhibition

>  <Quantity unit>
%

>  <Reported>
88

$$$$
>  <Compound>
COC1/C=C\C=C(/C)C(=O)NC2=CC(=O)C(=O)C(=C2O)CC(C)CC(OC)C(O)C(C)/C=C(\C)C1OC(N)=O (stereo not given)

>  <Value type>
growth inhibition

>  <Quantity unit>
%

>  <Reported>
95

$$$$
>  <Compound>
O=C(NCCCCN1CC2CCCC2C1)C(C1CCCCC1)C1CCCCC1 (stereo not given)

>  <Value type>
growth inhibition

>  <Quantity unit>
%

>  <Reported>
75

$$$$
>  <Compound>
CN(C)CC1=Nc2cccc3cccc(c23)N1

>  <Value type>
growth inhibition

>  <Quantity unit>
%

>  <Reported>
-4

$$$$
>  <Compound>
Cc1cccc(/C=N/NC(=S)NC2CCCCC2)n1

>  <Value type>
growth inhibition

>  <Quantity unit>
%

>  <Reported>
10

$$$$
>  <Compound>
O=[N+]([O-])/C=C/c1cc2ccc3ccccc3c2[nH]1

>  <Value type>
growth inhibition

>  <Quantity unit>
%

>  <Reported>
79

$$$$
>  <Compound>
NC(=S)N1N=C2c3ccccc3CC[C@@H]2[C@@H]1c1ccccc1

>  <Value type>
growth inhibition

>  <Quantity unit>
%

>  <Reported>
9

$$$$
>  <Compound>
CC(=O)/C=C/c1cc([N+](=O)[O-])ccc1O

>  <Value type>
growth inhibition

>  <Quantity unit>
%

>  <Reported>
66

$$$$
>  <Compound>
C[n+]1c(/C=C/c2ccc(/C=N/NC(=O)c3ccc(C(=O)N/N=C/c4ccc(/C=C/c5cn6ccccc6[n+]5C)cc4)cc3)cc2)cn2ccccc21

>  <Value type>
growth inhibition

>  <Quantity unit>
%

>  <Reported>
97

$$$$
>  <Compound>
COc1ccc2c3c1OC(C)C31CC(=O)CCC1CC2 (stereo not given)

>  <Value type>
growth inhibition

>  <Quantity unit>
%

>  <Reported>
-5

$$$$
>  <Compound>
O=C1SS(=O)c2ccccc21 (stereo not given)

>  <Value type>
growth inhibition

>  <Quantity unit>
%

>  <Reported>
-5

$$$$
>  <Compound>
CO[C@@]1([C@@H](Cl)c2ccccc2)C(=O)N(C)/C(=C\c2ccccc2)C(=O)N1C

>  <Value type>
growth inhibition

>  <Quantity unit>
%

>  <Reported>
-1

$$$$

###

As shown below, each of these compounds has a reported growth inhibition value.
- Assay: NCI Yeast Anticancer Drug Screen. Data for the wt2 strain (AID 169);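 also: 0% = growth of vehicle-treated yeast cultures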
- Recorded conditions: S. cerevisiae wt2 strain growth inhibition; at 3.7 µM; stronger effect = higher value
- Experimental: Growth inhibition of yeast strains with defined genetic alterations is measured as a screen for potential anti-cancer activity. Selected strains with alterations in DNA damage repair or cell cycle control were exposed to compounds and growth inhibition was measured relative to vehicle treated controls. The strain used in this assay is wt2
This is part of a sample that, as a whole, favours compounds with a hit. Of some 79,000 tested, about 15% had one in any assay.

>  <Compound>
O=C(NOC(=O)c1ccc([N+](=O)[O-])cc1)c1ccc(Cl)cc1

>  <growth inhibition, %>
-27

$$$$
>  <Compound>
O=C(O)c1cc2c(cc1S(=O)(=O)O)C1C(C3C2C2(Cl)C(Cl)=C(Cl)C3(Cl)C2(Cl)Cl)C2(Cl)C(Cl)=C(Cl)C1(Cl)C2(Cl)Cl (stereo not drawn)

>  <growth inhibition, %>
0

$$$$
>  <Compound>
CC(=O)N1C=Cc2c(c(C)c3c([nH]c4ccccc43)c2C)C1

>  <growth inhibition, %>
36

$$$$
>  <Compound>
COC(=O)C1CCCCC1C(=O)Nc1ccccc1 (stereo not drawn)

>  <growth inhibition, %>
-1

$$$$
>  <Compound>
O=[N+]([O-])c1ccc(S(=O)(=O)Cc2ccccc2)c([N+](=O)[O-])c1

>  <growth inhibition, %>
15

$$$$
>  <Compound>
CC(C)C(c1ccccc1)c1ccccc1

>  <growth inhibition, %>
-2

$$$$
>  <Compound>
CCC(C)(C)c1ccc(Oc2ccccc2)c(N)c1

>  <growth inhibition, %>
0

$$$$
>  <Compound>
O=S(=O)(c1cccc(C(F)(F)F)c1)N1c2ccccc2-n2cccc2C1c1cccnc1 (stereo not drawn)

>  <growth inhibition, %>
-41

$$$$
>  <Compound>
Cc1cc(C)c(S(=O)(=O)c2ccc(Cl)cc2)c(C)c1

>  <growth inhibition, %>
-7

$$$$
>  <Compound>
CC1(c2ccccc2)O[C@@H]2C[C@H]3[C@@H]4CCC5=CC(=O)C=C[C@]5(C)[C@@]4(F)[C@@H](O)C[C@]3(C)[C@]2(C(=O)CO)O1 (stereo partly drawn)

>  <growth inhibition, %>
-1

$$$$
>  <Compound>
CO[C@@]1([C@@H](Cl)c2ccccc2)C(=O)N(C)/C(=C\c2ccccc2)C(=O)N1C

>  <growth inhibition, %>
0

$$$$
>  <Compound>
O=C1c2cccc3cccc(c23)C(=O)N1CCNCCN1C(=O)c2cccc3cccc(c23)C1=O

>  <growth inhibition, %>
0

$$$$
>  <Compound>
CN(C)CCNC(=Cc1ccc2ccccc2[n+]1C)NCCN(C)C

>  <growth inhibition, %>
-3

$$$$
>  <Compound>
O=C(NC(N1CCN(c2cc3c(cc2F)c(=O)c(C(=O)O)cn3C2CC2)CC1)(C(F)(F)F)C(F)(F)F)c1ccccc1

>  <growth inhibition, %>
-2

$$$$
>  <Compound>
CCCCCCCCSC1=C(Cl)C(=O)C(OC)=C(OC)C1=O

>  <growth inhibition, %>
-19

$$$$
>  <Compound>
O=C(NCCCCN(CCCNC(=O)C(F)(F)F)Cc1ccccc1)C(F)(F)F

>  <growth inhibition, %>
-6

$$$$
>  <Compound>
CCCCN(CCCC)c1ccc(N=Nc2ccc(S(=O)(=O)O)cc2)cc1

>  <growth inhibition, %>
39

$$$$
>  <Compound>
O=C1C2=C(c3ccccc31)C(c1ccccc1)N1C(=O)CSC1=N2 (stereo not drawn)

>  <growth inhibition, %>
7

$$$$
>  <Compound>
Cc1cccc2c1C1c3c(C)cccc3C(CC(=O)O)CC1CC2 (stereo not drawn)

>  <growth inhibition, %>
60

$$$$
>  <Compound>
Cc1ccc(S(=O)(=O)Nc2cccc3cccnc23)cc1

>  <growth inhibition, %>
-5

$$$$
>  <Compound>
O=c1cccccc1[O-].O=c1cccccc1[O-].O=c1cccccc1[O-].[Eu+3]

>  <growth inhibition, %>
3

$$$$
>  <Compound>
CCCCCCCCCCCCOCCOCCOCC(N)=O

>  <growth inhibition, %>
-20

$$$$
>  <Compound>
C=COC(=O)N[C@H]1CCc2cc(OC)c(OC)c(OC)c2-c2ccc(SC)c(=O)cc21

>  <growth inhibition, %>
-4

$$$$
>  <Compound>
COc1ccc2nc3cccc([N+](=O)[O-])c3c(NCCCCCC(=O)O)c2c1

>  <growth inhibition, %>
42

$$$$
>  <Compound>
O=[N+]([O-])c1cc(Cl)ccc1S(=O)(=O)c1ccc(Cl)cc1[N+](=O)[O-]

>  <growth inhibition, %>
4

$$$$
>  <Compound>
COc1cc(OC)c(CSCC(NC(=O)OCC2c3ccccc3-c3ccccc32)C(=O)O)c(OC)c1 (stereo not drawn)

>  <growth inhibition, %>
6

$$$$
>  <Compound>
CCO/C=C1\SC(=S)N(c2ccc(OCC)cc2)C1=O

>  <growth inhibition, %>
-38

$$$$
>  <Compound>
O=[N+]([O-])/C=C/c1cc2ccc3ccccc3c2[nH]1

>  <growth inhibition, %>
57

$$$$
>  <Compound>
O=C(c1ccccc1)[C@H]1Nc2ccc(Cl)cc2[C@H]2OCCC[C@@H]12

>  <growth inhibition, %>
-15

$$$$
>  <Compound>
O=C(C#Cc1ccccc1)/C=C/c1ccccc1

>  <growth inhibition, %>
-5

$$$$
>  <Compound>
CC1(C)CC(=O)C(C(=O)Nc2cccs2)=C(O)C1

>  <growth inhibition, %>
14

$$$$
>  <Compound>
CN(CCOc1ccc(Cl)cc1)CCOc1ccc(Cl)cc1

>  <growth inhibition, %>
11

$$$$
>  <Compound>
CNC(=O)OCc1c2ccncc2c(C)c2c1[nH]c1ccccc12

>  <growth inhibition, %>
-21

$$$$
>  <Compound>
Nc1ccc(/C=C/c2ccc3cccnc3c2)cc1

>  <growth inhibition, %>
8

$$$$
>  <Compound>
CS(=O)(=O)O.[Ag]

>  <growth inhibition, %>
99

$$$$
>  <Compound>
CC(C)OP(=O)(OC(C)C)C(=NCCO)NNc1ccc([N+](=O)[O-])cc1

>  <growth inhibition, %>
-3

$$$$
>  <Compound>
CCC(/C=C/c1ccccc1)=N\Nc1ccc(Cl)cc1

>  <growth inhibition, %>
-9

$$$$
>  <Compound>
Nc1cc(Cl)ccc1Nc1ccccc1

>  <growth inhibition, %>
-15

$$$$
>  <Compound>
CCS(=O)(=O)Nc1ccc(Nc2c3ccccc3nc3ccccc23)c(OC)c1

>  <growth inhibition, %>
-47

$$$$
>  <Compound>
COc1cc([C@@H]2c3cc4c(cc3[C@@H](NC(=O)NO)[C@H]3COC(=O)[C@H]23)OCO4)cc(OC)c1O

>  <growth inhibition, %>
0

$$$$
>  <Compound>
CCCCOc1ccc2nc(C)cc(N=[N+]=[N-])c2c1

>  <growth inhibition, %>
6

$$$$
>  <Compound>
COc1cc2c(cc1OC)[C@@H](Nc1ccc(C#N)cc1)C1COC(=O)[C@@H]1C2c1cc(OC)c(O)c(OC)c1 (stereo partly drawn)

>  <growth inhibition, %>
17

$$$$
>  <Compound>
C/C(=N\Sc1ccccc1)c1ccccc1O

>  <growth inhibition, %>
2

$$$$

These measurements were taken from PubChem BioAssay (NCI).
